Reported normalized growth values for the following compounds.
Test: chemical genetic growth profiling, strain panel (AID 1159580);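 further: tested at 20 µM; growth read once vehicle control cultures reached saturation at 30 °C; 1 = growth at the plate median or of vehicle wells; lower values mean less growth of the strain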
Conditions: S. cerevisiae deletion strains, growth OD, locus YOR080W, strain dia2, hits give low values
Among all 5,500 compounds or so, about 2,000 (36%) were called active. Another 18% or so got no clear call; they are omitted. The list shows a part of the results.

Solved cases below.
compound	endpoint	assay.value
Oc1c(Cl)cc(Cl)c2cccnc12	normalized growth	0.0794 (active)
C1CNCCN1	normalized growth	1.02 (inactive)
CC(=O)O[C@@H]1CC2C(C)(C)C=CC(=O)[C@]2(C)C2CC[C@@]3(C)[C@H](c4ccoc4)OC(=O)C4OC43[C@@]21C (some centres undefined)	normalized growth	0.993 (inactive)
C[n+]1cccc(C(=O)[O-])c1	normalized growth	0.978 (inactive)
C[C@H]1[C@H]2CCC3C4CC=C5C[C@@H](N(C)C)CC[C@]5(C)C4CC[C@@]32CN1C (some centres undefined)	normalized growth	0.978 (inactive)
CCN(CC)CCNC(=O)c1cc(S(C)(=O)=O)ccc1OC	normalized growth	0.959 (inactive)

Item Cc1c(Nc2ncccc2C(=O)O)cccc1C(F)(F)F : provide normalized growth
0.979 (inactive)

Item COc1ccccc1OCCNCC(O)COc1cccc2[nH]c3ccccc3c12 (centres undefined) : provide normalized growth
1 (inactive)

Item Oc1c(I)cc(Cl)c2cccnc12 : provide normalized growth
0.0874 (active)

Item O=C(O)c1ccccc1Nc1ccccc1 : provide normalized growth
0.959 (inactive)

Item C1CCN2C[C@@H]3C[C@H](CN4CCCC[C@@H]34)[C@H]2C1 : provide normalized growth
0.999 (inactive)

###

Experiment: chemical genetic growth profiling, strain panel (AID 1159580)
Details: S. cerevisiae deletion strains, growth OD, locus YNL298W, strain CLA4
Among all 5,500 compounds or so, about 2,000 (36%) were called active. Not shown: some 18% with an inconclusive outcome. Cut-off read from the data, not from the text of the source: active = normalized growth mostly below about 0.91 (no sharp cut-off); inconclusive = no clear call, values can overlap the other calls; inactive = mostly above about 0.92. Some of the results follow.
Give your call using only these classes: class 1 for active, class 0 for inactive

Answered examples (4):
compound	category.label
CC(C)NCC(O)c1ccc2ccccc2c1 (stereo not given)	class 0
CC(C)N(C(=O)SCC(Cl)=C(Cl)Cl)C(C)C	class 0
Nc1nc2ncc(C(=O)O)nc2c(=O)[nH]1	class 0
Oc1ccc(Cl)c2cccnc12	class 1

Any idea what this test logged for CC1(C)C(C(Cl)Cl)C2(Cl)C(Cl)C(Cl)C1(Cl)C2(Cl)Cl (stereo not given) ?
class 0

###

Experiment: chemical genetic growth profiling, strain panel (AID 1159580)
Conditions: S. cerevisiae deletion strains, growth OD, locus YNL128W, strain TEP1
The campaign covered roughly 5,500 compounds. About 2,000 (36%) were called active. Not shown: some 18% with an inconclusive outcome. Rule as the data show it: active = normalized growth mostly below about 0.91 (no sharp cut-off); inconclusive = no clear call, values can overlap the other calls; inactive = mostly above about 0.92. Some of the results follow.
Give your call using only these classes: active, inactive

Answered examples (6):
compound	category.label
O=C(O)/C=C/c1cnc[nH]1	inactive
Cc1[nH]ncc1-c1ccccc1	inactive
COc1ccccc1OCCNCC(O)COc1cccc2[nH]c3ccccc3c12 (centres undefined)	inactive
O=C(O)CCCCC1CCSS1 (centres undefined)	inactive
NCC(CC(=O)O)c1ccc(Cl)s1 (centres undefined)	inactive
CC1(C)C(O)CC(O)C2(C)C1CC(=O)C1(C)C2CCC2(C)C(C(=O)O)OC(=O)C3OC321 (centres undefined)	inactive

Please find the next compound below.
Any idea what this test logged for Nc1ccc(S(=O)(=O)Nc2ccccn2)cc1 ?
inactive

###

Reported normalized growth values for the following compounds.
Assay: chemical genetic growth profiling, strain panel (AID 1159580)
Conditions: S. cerevisiae deletion strains, growth OD, locus YDL074C, strain BRE1, hits give low values
Out of some 5,500 compounds screened, about 2,000 (36%) were called active. About 18% were inconclusive and are not listed. The list shows a part of the results.
// response body must contain only the number

Item Nc1ccc(S(=O)(=O)Nc2ccc(Cl)nn2)cc1 : provide normalized growth
0.978

Item CCC(Cc1c(I)cc(I)c(N)c1I)C(=O)O (stereo not drawn) : provide normalized growth
1.01

Item COC(=O)C[C@H]1C(C)(C)C(=O)[C@@H]2CC3=C4CC(=O)O[C@@H](c5ccoc5)[C@]4(C)CCC3[C@@]1(C)C2=O (stereo partly drawn) : provide normalized growth
1.02

###

Test: chemical genetic growth profiling, strain panel (AID 1159580)
Conditions: S. cerevisiae deletion strains, growth OD, locus YLR342W, strain FKS1 (second series), hits give low values
Screen size: about 5,500 compounds; about 2,000 (36%) were called active. About 18% were inconclusive and are not listed. This is one part of the list.
endpoint: normalized growth

compound	normalized growth
Nc1ccc(C(=O)NCC(=O)O)cc1	0.987 (inactive)

Item CC1(C)CC2C1(O)CCC1(C)C=CC(O)C21CO (stereo unspecified) : provide normalized growth
0.994 (inactive)

Item c1ccc2c(c1)cc1ccc3cccc4ccc2c1c34 : provide normalized growth
1.01 (inactive)

Item CN[C@H](CC(=O)O)C(=O)O : provide normalized growth
0.983 (inactive)

Item Nc1nc2ncc(C(=O)O)nc2c(=O)[nH]1 : provide normalized growth
0.998 (inactive)

Item CCCc1occc(=O)c1/C=C/O : provide normalized growth
0.982 (inactive)

###

Assay: chemical genetic growth profiling, strain panel (AID 1159580)
Conditions: S. cerevisiae deletion strains, growth OD, locus YAL013W, strain DEP1
Hit rate of the full screen: of about 5,500 compounds, about 2,000 (36%) were called active. Roughly 18% stayed inconclusive and do not appear here. Cut-off read from the data, not from the text of the source: active = normalized growth mostly below about 0.91 (no sharp cut-off); inconclusive = no clear call, values can overlap the other calls; inactive = mostly above about 0.92. The list shows a part of the results.
Give your call using only these classes: TRUE = active, FALSE = inactive

Answered examples (2):
item.smiles	category.label
O=[N+]([O-])c1ccc(O)c([N+](=O)[O-])c1	TRUE
Nc1ccccc1SCC(=O)Nc1c(F)cccc1F	FALSE

Any idea what this test logged for O=[N+]([O-])c1ccc(SC2=NCCN2)c(Cl)c1 ?
FALSE

###

Assay: chemical genetic growth profiling, strain panel (AID 1159580);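 further: tested at 20 µM; growth read once vehicle control cultures reached saturation at 30 °C; 1 = growth at the plate median or of vehicle wells; lower values mean less growth of the strain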
Details: S. cerevisiae deletion strains, growth OD, locus YIL147C, strain SLN1
The campaign covered roughly 5,500 compounds. About 2,000 (36%) were called active. About 18% were inconclusive and are not listed. Cut-off read from the data, not from the text of the source: active = normalized growth mostly below about 0.91 (no sharp cut-off); inconclusive = no clear call, values can overlap the other calls; inactive = mostly above about 0.92. The list shows a part of the results.
Give your call using only these classes: 1 (active), -1 (inactive)

Answered examples (5):
item.smiles	category.label
Cc1cc(Cl)ccc1NC(=S)NNC(=S)Nc1ccc(F)cc1	-1
O=c1c(Cl)c(-n2cccn2)cnn1-c1ccc(Cl)cc1Cl	-1
FC(F)(F)c1cccc(NC(=S)Nc2csc(C(F)(F)F)c2-c2ccccc2)c1	-1
O=C(c1ccccc1)c1cc(Cl)ccc1NC(=S)Nc1ccc(F)cc1	-1
N#CC(C#N)=C/C=C(/Sc1nc2ccccc2s1)c1ccc(Br)cc1	1

Any idea what this test logged for O=S(=O)(N/N=C\c1ccc(Cl)cc1)c1ccc(-c2ccccn2)s1 ?
-1

Any idea what this test logged for Fc1cccc(Cl)c1CSc1nncn1-c1ccc(OCc2ccccc2)cc1 ?
-1

Any idea what this test logged for CSc1cc(-c2ccncc2)nc(-c2cccs2)c1 ?
-1

Any idea what this test logged for COc1ccc(C(=O)CSC2=NCCc3ccccc32)cc1 ?
-1

###

Test: chemical genetic growth profiling, strain panel (AID 1159580);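 further: tested at 20 µM; growth read once vehicle control cultures reached saturation at 30 °C; 1 = growth at the plate median or of vehicle wells; lower values mean less growth of the strain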
Conditions: S. cerevisiae deletion strains, growth OD, locus YLR262C, strain YPT6 (second series)
Hit rate of the full screen: of about 5,500 compounds, about 2,000 (36%) were called active. About 18% were inconclusive and are not listed. Cut-off read from the data, not from the text of the source: active = normalized growth mostly below about 0.91 (no sharp cut-off); inconclusive = no clear call, values can overlap the other calls; inactive = mostly above about 0.92. The list shows a part of the results.
Give your call using only these classes: active, inactive

molecule	category.label
CN(C)CCOC(C)(c1ccccc1)c1ccccn1 (stereo not drawn)	inactive
O=C(OC1Cc2c(O)cc(O)cc2OC1c1cc(O)c(O)c(O)c1-c1c(C2Oc3cc(O)cc(O)c3CC2OC(=O)c2cc(O)c(O)c(O)c2)cc(O)c(O)c1O)c1cc(O)c(O)c(O)c1 (stereo not drawn)	active

Any idea what this test logged for COc1cc(C(=O)NCc2ccc(OCCN(C)C)cc2)cc(OC)c1OC ?
inactive

###

Test: chemical genetic growth profiling, strain panel (AID 1159580);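 further: tested at 20 µM; growth read once vehicle control cultures reached saturation at 30 °C; 1 = growth at the plate median or of vehicle wells; lower values mean less growth of the strain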
Conditions: S. cerevisiae deletion strains, growth OD, locus YDL101C, strain DUN1, hits give low values
About 2,000 (36%) of roughly 5,500 compounds were called active. Not shown: some 18% with an inconclusive outcome. The list shows a part of the results.
endpoint: normalized growth
// response body must contain only the number

molecule	normalized growth
FC(F)(F)c1cccc(NC(=S)Nc2csc(C(F)(F)F)c2-c2ccccc2)c1	0.983
COc1ccc(-c2c(C)nc3ccc(Cl)cc3c2-c2ccccc2)cc1OC	0.945
Cc1occc(=O)c1O	1.01
C1CCN2C[C@@H]3C[C@H](CN4CCCC[C@@H]34)[C@H]2C1	1.01
Oc1c(Br)cc(Br)c2cccnc12	0.0585
Cc1onc(NC(=O)NC(=O)c2c(F)cccc2Cl)c1Br	1.04
CC(C)(C)NC[C@@H](O)COc1nsnc1N1CCOCC1	0.99
Cc1[nH]ncc1-c1ccccc1	0.979
Cc1cc(C)c(I)c(C)c1	0.987
O=C(NCCSCc1cccc(C(F)(F)F)c1)c1ccc(Cl)cc1	0.975

Item C=CC(C)(O)CC/C=C(\C)CCC=C(C)C (stereo not drawn) : provide normalized growth
0.958

Item O=C(NCCSCc1ccco1)c1ccc(Cl)cc1 : provide normalized growth
0.976

Item NCCNC(=O)c1ccc(Cl)cc1 : provide normalized growth
0.994

Item Fc1cccc(F)c1NC(=S)Nc1cc(C(F)(F)F)cc(C(F)(F)F)c1 : provide normalized growth
0.991
